Value source: patent US20240294644A1

TESTED TARGET: T1, mouse VTCN1 protein (mouse, UniProt Q7TSP5 25-257, limits assumed)
T1 construct: The construct and its tag are not described
T1 sequence (looked up): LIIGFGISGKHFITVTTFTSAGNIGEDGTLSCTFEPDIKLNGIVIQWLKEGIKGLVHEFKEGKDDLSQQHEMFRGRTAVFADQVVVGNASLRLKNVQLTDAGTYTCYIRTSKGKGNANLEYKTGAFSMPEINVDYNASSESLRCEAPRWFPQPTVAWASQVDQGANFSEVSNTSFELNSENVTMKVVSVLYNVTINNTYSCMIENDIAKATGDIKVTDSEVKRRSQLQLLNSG
EXPERIMENT: BLI (OCTET), mouse VTCN1 protein
READOUT NAME: pKd
Numbers only, as −log10 of the molar value.

Guide cases for pKd, answers given:
4C7_63A1 (antibody, V domains shown, Fully human antibody) VH: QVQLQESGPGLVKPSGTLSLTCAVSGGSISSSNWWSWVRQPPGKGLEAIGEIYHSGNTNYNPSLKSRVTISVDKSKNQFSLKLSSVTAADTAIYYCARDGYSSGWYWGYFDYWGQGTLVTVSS VL: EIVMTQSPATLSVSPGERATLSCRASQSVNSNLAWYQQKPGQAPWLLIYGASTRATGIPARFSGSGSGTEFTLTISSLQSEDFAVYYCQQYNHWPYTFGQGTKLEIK; 7.36
14D6_60B5 (antibody, V domains shown, Fully human antibody) VH: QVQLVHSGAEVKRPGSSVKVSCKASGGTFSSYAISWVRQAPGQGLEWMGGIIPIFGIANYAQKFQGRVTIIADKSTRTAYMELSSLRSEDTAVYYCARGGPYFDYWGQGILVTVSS VL: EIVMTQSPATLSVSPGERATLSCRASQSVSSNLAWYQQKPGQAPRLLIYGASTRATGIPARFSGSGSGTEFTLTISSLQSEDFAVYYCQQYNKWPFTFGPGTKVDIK; 7.25

Could I get pKd for every one of these entries?
1. 16H12_60B4 (antibody, V domains shown, Fully human antibody) VH: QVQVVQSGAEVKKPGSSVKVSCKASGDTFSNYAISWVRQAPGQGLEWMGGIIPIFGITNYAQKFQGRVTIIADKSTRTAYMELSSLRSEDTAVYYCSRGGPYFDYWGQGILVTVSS VL: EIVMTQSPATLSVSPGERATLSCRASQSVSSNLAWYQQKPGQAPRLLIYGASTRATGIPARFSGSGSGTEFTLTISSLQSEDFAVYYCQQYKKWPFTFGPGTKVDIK
2. 13H9_44D2 (antibody, V domains shown, Fully human antibody) VH: QVQLQESGPGLVKPSETLSLTCTVSGGSISSYYWSWIRQPPGKGLEWIGYIYYSGSTNNNPSLKSRVTISVDTSKNQFSLKLISVTAADTAVYYCARVYNNYDWGFDYWGQGTLVTVSS VL: EIVMTQSPATLSVSPGERATLSCRASQSVSSNLAWYQQKPGQAPRLLIYGASTRATGIPARFSGSGSGTEFTLTIRSLQSEDFAVYYCQQYHNWPLTFGGGTKLEIK

1: 7.57; 2: 6.57
